compounds and their reported growth inhibition
- assay-comment: growth inhibition of wild-type E. coli BW25113 pool, dose response, OD615 (AID 635);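 note: growth measured after 20 h with compound at 37 °C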
- measurement-parameters: pooled mutant strains; at 100 µM (top of the series)
Screen size: about 1,300 compounds; about 40 (3%) were called active. Only a sample is shown. Potency and affinity values are given separately.
Numbers only here, please. The scale is %.

Observe how each entry below is paired with its result.
INSERT INTO assay_data (compound, endpoint_unit, experimental_result) VALUES
  ('CCOC(=O)C1CN(c2cc3c(cc2F)c(=O)c(C(=O)O)cn3CC)OC1C(=O)OCC (stereo not given)', '%', 0.67),
  ('Brc1cccc(-c2n[nH]c(-c3ccccc3)n2)c1', '%', 4.22),
  ('O=C(CCSc1nc(-c2ccco2)cc(C(F)(F)F)n1)N1CCCc2ccccc21', '%', -1.07),
  ('COc1ccccc1N1CCN(C(c2ccccc2Cl)c2nnnn2C(C)(C)C)CC1 (stereo not given)', '%', -0.1),
  ('Cc1cc(=O)[nH]c(SCC(=O)Nc2nc(-c3ccccc3)cs2)n1', '%', 4.29);

Prompt: Which growth inhibition reading was recorded for the compound CCOC(=O)C1CCN(C(c2cccnc2)c2c(NC(=O)c3ccco3)sc(C)c2C)CC1 (stereo not given) ?
Completion: -3.15

Prompt: Now consider O=C(c1ccco1)N1CCN(c2c(-c3ccccc3)c3cc(Cl)ccc3[nH]c2=O)CC1 and answer again.
Completion: 0.97

Prompt: Now consider Cc1ccc(-n2c(C)cc(C(=O)COC(=O)c3c(C)noc3C)c2C)cc1 and answer again.
Completion: -5.46

Prompt: Now consider CCOC(=O)N1CCN(c2nc3ccccc3nc2C(C#N)S(=O)(=O)c2ccc(C)cc2)CC1 (stereo not given) and answer again.
Completion: -1.57

Prompt: Now consider c1ccc2oc(SCc3nc4ccccc4s3)nc2c1 and answer again.
Completion: -0.66

###

- assay-comment: growth inhibition of wild-type E. coli BW25113 pool, dose response, OD615 (AID 635);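 note: growth measured after 20 h with compound at 37 °C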
- measurement-parameters: pooled mutant strains; at 100 µM (top of the series)
About 40 (3%) of roughly 1,300 compounds were called active. Only a sample is shown. Entries with a potency or affinity are not part of this list.
observation-type: growth inhibition (%)
Numbers only here, please. The scale is %.

INSERT INTO measurements (compound, experimental_result) VALUES
  ('c1ccc2c(c1)CCN(c1nc3cc4c(cc3s1)OCCO4)C2', 0.44),
  ('CC1=C(C(=O)OC2CCCCCCC2)C(c2cccc(O)c2)NC(=O)N1 (stereo not given)', 3.15),
  ('COc1ccc(NS(=O)(=O)c2ccc3oc(Nc4ccc5c(c4)OCCO5)nc3c2)cc1', -4.76),
  ('Cc1cc(NC(=O)C2CCCCC2)nc2c1c(=O)oc1ccccc12', -2.5);

# next compound below
Prompt: Which growth inhibition reading was recorded for the compound COc1ccc(OCC(O)Cn2c(=N)n(Cc3ccccc3)c3ccccc32)cc1 (stereo not given) ?
Completion: 12.8

###

- assay-comment: growth inhibition of wild-type E. coli BW25113 pool, dose response, OD615 (AID 635);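 note: growth measured after 20 h with compound at 37 °C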
- measurement-parameters: pooled mutant strains; at 100 µM (top of the series)
Out of some 1,300 compounds screened, about 40 (3%) were called active. Not all results are given here. Entries with a potency or affinity are not part of this list.
observation-type: growth inhibition (%)
Numbers only here, please. The scale is %.

Observe how each entry below is paired with its result.
INSERT INTO results (sample_smiles, observation_type, experimental_result) VALUES
  ('CCOC(=O)c1c(-c2ccccc2)nnn1-c1nc(OCC)nc(N2CCCCC2)n1', 'growth inhibition', 0.78),
  ('COc1ccc(C(=O)Nn2cnc3scc(-c4cccs4)c3c2=O)c(O)c1', 'growth inhibition', 0.89),
  ('N#Cc1ccc(CSc2nnc(-c3cccs3)n2-c2ccccc2)cc1', 'growth inhibition', -1.14);

Prompt: Which growth inhibition reading was recorded for the compound CCCc1cc(C(=O)N2CCN(c3ccccc3C)CC2)cs1 ?
Completion: 3.4

Prompt: Now consider CCc1nc(N2CCCCC2)c2oc3ccccc3c2n1 and answer again.
Completion: -3.08

Prompt: Now consider CC(C)(C)OC(=O)N1CCC[C@H]1c1nnc(SCc2ccc(Cl)cc2Cl)o1 and answer again.
Completion: 6.74

Prompt: Now consider CCn1c2ccccc2c2nnc(SCc3ccccc3)nc21 and answer again.
Completion: -4.04

Prompt: Now consider CC(C)OCCCNc1ncnc2c1[nH]c1ccccc12 and answer again.
Completion: 0.81

Prompt: Now consider Cc1cc(Cl)cc(C)c1OCCCCn1ccnc1 and answer again.
Completion: 8.19

Prompt: Now consider CCOc1ccc(OCCSc2nnnn2C2CCCCC2)cc1 and answer again.
Completion: 2.59

Prompt: Now consider Cc1cc(C)c(C#N)c(SCC(=O)OC2CCCCC2)n1 and answer again.
Completion: 4.58

Prompt: Now consider N#Cc1ccc(NC(=O)Nc2ccc(Cl)cc2)cc1 and answer again.
Completion: 12.7

###

- assay-comment: growth inhibition of wild-type E. coli BW25113 pool, dose response, OD615 (AID 635);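 note: growth measured after 20 h with compound at 37 °C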
- measurement-parameters: pooled mutant strains; at 100 µM (top of the series)
Among all 1,300 compounds or so, about 40 (3%) were called active. Only a sample is shown. Results with a measured potency or affinity are listed apart.
molecules and their reported growth inhibition
Numbers only here, please. The scale is %.

Observe how each entry below is paired with its result.
INSERT INTO assay_data (molecule, observation_type, experimental_result) VALUES
  ('Cc1ccc(SCC(=O)N(Cc2nc(-c3ccccc3)no2)C(C)C)cc1', 'growth inhibition', 3.99),
  ('CC1Cc2ccccc2N1C(=O)Cn1c(=O)oc2cc(S(=O)(=O)NC3CCCC3)ccc21 (configuration not stated)', 'growth inhibition', -2.66),
  ('CCN(C(=O)c1ccc(C(C)(C)C)cc1)c1nnc(Cn2nnc3ccccc32)s1', 'growth inhibition', 2.41);

Prompt: Which growth inhibition reading was recorded for the molecule CC1CCN(S(=O)(=O)c2ccc(Cl)cc2Br)CC1 ?
Completion: 7.88

Prompt: Now consider Cn1c(C(=O)N2CCc3ccccc3C2)cc2oc3ccccc3c21 and answer again.
Completion: -4.13

Prompt: Now consider Cc1nn(-c2ccccc2)c2sc(C(=O)N(CC(=O)NC(C)(C)C)Cc3ccco3)cc12 and answer again.
Completion: -4.44

###

compounds and their reported growth inhibition
- assay-comment: growth inhibition of wild-type E. coli BW25113 pool, dose response, OD615 (AID 635);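 note: growth measured after 20 h with compound at 37 °C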
- measurement-parameters: pooled mutant strains; at 100 µM (top of the series)
The campaign covered roughly 1,300 compounds. About 40 (3%) were called active. These entries were drawn from the full list. Potency and affinity values are given separately.
Numbers only here, please. The scale is %.

Observe how each entry below is paired with its result.
INSERT INTO results (sample_smiles, experimental_result) VALUES
  ('N#Cc1cn(Cc2cccc(Cl)c2)c2ccccc12', 7.22),
  ('COc1ccc2[nH]c3c(=O)n(CCCCC(=O)NCCN4CCCC4)c(=S)[nH]c3c2c1', -2.44);

Prompt: Which growth inhibition reading was recorded for the compound O=C(NC12CC3CC(CC(C3)C1)C2)c1ccccc1O ?
Completion: 8.6

Prompt: Now consider CCOc1ccc(S(=O)(=O)Nc2cccc(Cl)c2)cc1 and answer again.
Completion: 12.8

Prompt: Now consider O=C(c1cc2ccccc2o1)N1CCN(c2ccccc2Cl)CC1 and answer again.
Completion: -2.73

Prompt: Now consider O=C(NC1CCCCCCC1)c1ccccc1O and answer again.
Completion: 0.38

###

- assay-comment: growth inhibition of wild-type E. coli BW25113 pool, dose response, OD615 (AID 635);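 note: growth measured after 20 h with compound at 37 °C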
- measurement-parameters: pooled mutant strains; at 100 µM (top of the series)
Hit rate of the full screen: of about 1,300 compounds, about 40 (3%) were called active. These entries were drawn from the full list. Potency and affinity values are given separately.
observation-type: growth inhibition (%)
Numbers only here, please. The scale is %.

INSERT INTO results (sample_smiles, observation_type, experimental_result) VALUES
  ('CCn1cc(C(=O)O)c(=O)c2cnc(N3CCN(C(=O)Nc4ccccc4)CC3)nc21', 'growth inhibition', 5.46),
  ('CCOC(=O)c1cn(CC)c2cc(N3CCOCC3)c(F)cc2c1=O', 'growth inhibition', 3.52),
  ('CCOC(=O)c1cn(CC)c2cc(N3CCCCC3)c(F)cc2c1=O', 'growth inhibition', -1.4),
  ('CCn1cc(C(=O)Nc2nncs2)c(=O)c2cc(F)c(N3CCN(C(=O)c4ccco4)CC3)cc21', 'growth inhibition', 15.6),
  ('CC(C)(C)C(=O)Cn1c(=N)n(Cc2ccccc2)c2ccccc21', 'growth inhibition', 1.48),
  ('COc1ccc(-c2csc(NCc3ccco3)n2)cc1C', 'growth inhibition', -4.35);

Prompt: Which growth inhibition reading was recorded for the compound Cc1nc2c(C(=O)NCc3ccc4c(c3)OCO4)c[nH]n2c(=O)c1Cc1ccccc1F ?
Completion: 0.56

Prompt: Now consider O=C(c1ccc(COc2c(F)c(F)cc(F)c2F)o1)N1CCN(c2ccc(Cl)cc2)CC1 and answer again.
Completion: -6.87

Prompt: Now consider O=c1n(Cc2ccccc2)c2cc(Cl)cnc2n1Cc1ccccc1 and answer again.
Completion: -2.48

From: PubChem BioAssay AID635
